// data source = patent US5228957A

test: Extractive distillation agent separating methyl t-butyl ether from n-pentane-cyclopentane mixtures (vapor-liquid equilibrium still); assay type: physicochemical; conditions: n-pentane to methyl t-butyl ether, n-pentane-cyclopentane mixture, with agent
Decision: Relative Volatility Pnt/MTBE >= 3 yields Satisfied, all other cases yield Not satisfied.

[[record]]
molecule = "CC(C)CC(=O)CC(C)C"
label_value = "Not satisfied"

[[record]]
molecule = "O=S1(=O)CCCC1"
label_value = "Not satisfied"

[[record]]
molecule = "CC(=O)CCC(C)C"
label_value = "Not satisfied"


(Q) Answer whether Relative Volatility Pnt/MTBE of CCOC(=O)CC(=O)OCC [Diethyl malonate] is greater than or equal to 3.
(A) Satisfied

(Q) Answer whether Relative Volatility Pnt/MTBE of COCC(C)OC(C)=O (stereo not drawn) [1-Methoxy-2-propanol acetate] is greater than or equal to 3.
(A) Satisfied

(Q) Answer whether Relative Volatility Pnt/MTBE of CCOC(=O)CC(C)=O [Ethyl acetoacetate] is greater than or equal to 3.
(A) Satisfied

====

experiment: Extractive distillation agent separating methyl t-butyl ether from cyclopentane (vapor-liquid equilibrium still); format: physicochemical; settings: cyclopentane to methyl t-butyl ether, with agent
Decision: Relative Volatility >= 2 yields Fulfilled, all other cases yield Not fulfilled.

[[record]]
compound = "CC(=O)c1ccccc1"
label_value = "Not fulfilled"

[[record]]
compound = "CC(C)(C)O"
label_value = "Fulfilled"

[[record]]
compound = "O=S1(=O)CCCC1"
label_value = "Fulfilled"


(Q) Answer whether Relative Volatility of `CN1CCCC1=O` is greater than or equal to 2.
(A) Not fulfilled

(Q) Answer whether Relative Volatility of C[S+](C)[O-] [Dimethylsulfoxide] is greater than or equal to 2.
(A) Not fulfilled

====

test: Extractive distillation agent separating methyl t-butyl ether from n-pentane-cyclopentane mixtures (vapor-liquid equilibrium still); assay type: physicochemical; conditions: cyclopentane to methyl t-butyl ether, n-pentane-cyclopentane mixture, with agent
Decision: Relative Volatility CyP/MTBE >= 2 yields 1.0, all other cases yield 0.0.

Use these answered entries as a reference point.
[[record]]
compound = "CCOC(=O)OCC [Diethyl carbonate]"
label_value = 0.0

[[record]]
compound = "COC(=O)c1ccccc1O [Methyl salicylate]"
label_value = 0.0

[[record]]
compound = "CC(=O)OCC(COC(C)=O)OC(C)=O [Triacetin]"
label_value = 0.0

[[record]]
compound = "O=S1(=O)CCCC1 [Sulfolane]"
label_value = 1.0

[[record]]
compound = "COCC(C)OC(C)=O (stereo not drawn) [1-Methoxy-2-propanol acetate]"
label_value = 0.0


(Q) Answer whether Relative Volatility CyP/MTBE of CC(C)CC(=O)CC(C)C [Diisobutyl ketone] is greater than or equal to 2.
(A) 0.0

(Q) Answer whether Relative Volatility CyP/MTBE of CC(C)[N+](=O)[O-] [2-Nitropropane] is greater than or equal to 2.
(A) 1.0

====

molecules and their reported Relative Volatility Pnt/MTBE
experiment: Extractive distillation agent separating methyl t-butyl ether from n-pentane-cyclopentane mixtures (vapor-liquid equilibrium still); format: physicochemical; conditions: n-pentane to methyl t-butyl ether, n-pentane-cyclopentane mixture, with agent
Provide a numeric answer; units are not to be included.

Below, 4 molecules whose answers are already recorded.
[[record]]
molecule = "CC(=O)OCC(COC(C)=O)OC(C)=O"
parameter = "Relative Volatility Pnt/MTBE"
data_value = 3.6

[[record]]
molecule = "CC(=O)c1ccccc1"
parameter = "Relative Volatility Pnt/MTBE"
data_value = 1.7

[[record]]
molecule = "CC(O)COc1ccccc1 (stereo not drawn)"
parameter = "Relative Volatility Pnt/MTBE"
data_value = 4.2

[[record]]
molecule = "CCCOC(C)=O [n-Propyl acetate]"
parameter = "Relative Volatility Pnt/MTBE"
data_value = 2.6


Note: attention shifts to another entry.
(Q) Look up Relative Volatility Pnt/MTBE of `CCC[N+](=O)[O-]` and report it.
(A) 5.2
